Read-out: Interferon-gamma inducible Protein 10 (IP10), CXCL10 (gene 3627)
Assay notes: BSK_KF3CT_IP10: BioMAP Diversity Plus: KF3CT Assay for Interferon-gamma inducible Protein 10 (IP10) Biomarker Activity (AID 2283068)
Measurement setup: primary human keratinocytes with fibroblasts; actives raise or lower the signal
The source made the active and inactive calls. The calls were made as follows: active = hit-call score of the fitted dose curve at least 0.9, where 1 is the maximum; inactive = score below 0.9.
Outcome codes: active, inactive

| Compound | Class label |
| --- | --- |
| CCOc1nc(F)cc2nc(S(=O)(=O)Nc3c(Cl)cccc3Cl)nn12 | active |
| Cc1cc(C)nc(Nc2ccccc2)n1 | inactive |
| CCOc1cc(C(C)(C)C)ccc1C1COC(c2c(F)cccc2F)=N1 (stereo unspecified) | active |
| CS(=O)(=O)c1ccc(C(=O)C2C(=O)CCCC2=O)c([N+](=O)[O-])c1 | inactive |
| CC(C)C1(C)N=C(c2ncccc2C(=O)O)NC1=O (stereo unspecified) | inactive |
| CCNC(=O)NC(=O)C(C#N)=NOC | inactive |

====

Assay notes: ATG_TGFb_CIS: Attagene CIS-FACTORIAL HepG2 Assay for human Transforming Growth Factor (TGF) (AID 2282967)
Measurement setup: HepG2 Attagene CIS TGFb reporter, mRNA transcription; actives raise or lower the signal
Calls of active or inactive are those of the source. The calls were made as follows: active = hit-call score of the fitted dose curve at least 0.9, where 1 is the maximum; inactive = score below 0.9.
Measured quantity: outcome

| Compound | Measured result |
| --- | --- |
| COP(=S)(OC)Oc1ccc([N+](=O)[O-])c(C)c1 | inactive |
| CCNC(=O)NC(=O)C(C#N)=NOC | inactive |
| O=P(O)(O)CCCl | inactive |
| CCSC(=O)N1CCCCCC1 | inactive |
| COC(=O)NS(=O)(=O)c1ccc(N)cc1 | inactive |
| CCCCC(O)(Cn1cncn1)c1ccc(Cl)cc1Cl (stereo unspecified) | inactive |

====

Test target: Heat shock factor protein 1 (Homo sapiens)
Assay notes: ATG_HSE_CIS: Attagene CIS-FACTORIAL HepG2 Assay for human Heat Shock Transcription Factor 1 (HSE) (AID 2282953)
Measurement setup: HepG2 HSE cis-reporter, Attagene RNA transcription; actives raise or lower the signal
Active and inactive are the calls of the source. The calls were made as follows: active = hit-call score of the fitted dose curve at least 0.9, where 1 is the maximum; inactive = score below 0.9.
Outcome codes: true (1) = active, false (0) = inactive

| Molecule | Class label |
| --- | --- |
| C=CCOC(=O)C(C)(C)OC(=O)c1cc(-n2c(=O)cc(C(F)(F)F)n(C)c2=O)ccc1Cl | false (0) |
| COc1cc(OC)nc(NC(=O)NS(=O)(=O)c2ncccc2OCC(F)(F)F)n1 | false (0) |
| CCOP(=S)(OCC)Oc1nc(Cl)n(C(C)C)n1 | false (0) |
| O=C1C2CC=CCC2C(=O)N1SC(Cl)(Cl)Cl (stereo unspecified) | false (0) |
| CCCCC(O)(Cn1cncn1)c1ccc(Cl)cc1Cl (stereo unspecified) | true (1) |
| CCCCOCN(C(=O)CCl)c1c(CC)cccc1CC | false (0) |
| COc1cc(Cl)c(OC)cc1Cl | false (0) |
| CS(=O)(=O)c1cc(C(F)(F)F)ccc1C(=O)c1cnoc1C1CC1 | false (0) |
| O=c1n(Cl)c(=O)n(Cl)c(=O)n1Cl | false (0) |
| CS(=O)(=O)c1ccc(C(=O)C2C(=O)CCCC2=O)c([N+](=O)[O-])c1 | false (0) |
| COC(=O)c1c(C(F)F)nc(C(F)(F)F)c(C2=NCCS2)c1CC(C)C | false (0) |

====

Read-out: Cytochrome P450 3A4 (Homo sapiens) (UniProt P08684)
Sequence (P08684 whole entry, looked up): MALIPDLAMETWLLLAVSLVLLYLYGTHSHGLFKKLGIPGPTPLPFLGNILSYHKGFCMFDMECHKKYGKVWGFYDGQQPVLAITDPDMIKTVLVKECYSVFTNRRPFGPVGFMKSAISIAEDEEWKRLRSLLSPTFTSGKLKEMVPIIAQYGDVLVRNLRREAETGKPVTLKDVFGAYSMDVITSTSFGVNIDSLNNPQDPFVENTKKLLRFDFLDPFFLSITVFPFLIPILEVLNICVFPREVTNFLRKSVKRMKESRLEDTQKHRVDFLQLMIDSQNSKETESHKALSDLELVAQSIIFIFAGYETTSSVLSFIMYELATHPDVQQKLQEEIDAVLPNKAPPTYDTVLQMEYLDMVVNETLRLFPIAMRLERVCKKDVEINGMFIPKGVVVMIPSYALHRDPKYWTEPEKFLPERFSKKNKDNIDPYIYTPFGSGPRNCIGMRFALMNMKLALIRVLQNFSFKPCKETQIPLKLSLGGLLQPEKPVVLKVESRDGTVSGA
Assay notes: CLD_CYP3A4_48hr: CellzDirect (CLD) Gene Expression Assay for xenobiotic metabolism (CYP3A4) at 48 hours (AID 2283698)
Records with an inconclusive call do not appear. Activity calls are given as the source filed them. How the source made its calls: active means hit-call score of the fitted dose curve at least 0.9, where 1 is the maximum; inconclusive means response in the unintended direction; inactive means score below 0.9.
Classes used: YES = active, NO = inactive

| Compound | Class label |
| --- | --- |
| Clc1cccc(C(Cl)(Cl)Cl)n1 | YES |
| CC(C)Nc1nc(Cl)nc(NC(C)C)n1 | YES |
| COCc1cnc(C2=NC(C)(C(C)C)C(=O)N2)c(C(=O)O)c1 (configuration not stated) | NO |
| COC(=O)NS(=O)(=O)c1ccc(N)cc1 | NO |
| N#CN=C1SCCN1Cc1ccc(Cl)nc1 | YES |
| CCSC(=O)N1CCCCCC1 | YES |
| N#Cc1c[nH]cc1-c1cccc2c1OC(F)(F)O2 | NO |
| CO/N=C(/C1=NOCCO1)c1ccccc1Oc1ncnc(Oc2ccccc2Cl)c1F | NO |
| COC(=O)N(C(=O)N1CO[C@@]2(C(=O)OC)Cc3cc(Cl)ccc3C2=N1)c1ccc(OC(F)(F)F)cc1 | YES |
| Cc1c(COC(=O)[C@@H]2[C@H](/C=C(\Cl)C(F)(F)F)C2(C)C)cccc1-c1ccccc1 | YES |
| COc1ccc(-c2ccccc2)cc1NNC(=O)OC(C)C | NO |
| COP(=S)(OC)SCn1nnc2ccccc2c1=O | YES |

====

Read-out: E-selectin (Homo sapiens) (UniProt P16581)
Sequence (P16581 whole entry, looked up): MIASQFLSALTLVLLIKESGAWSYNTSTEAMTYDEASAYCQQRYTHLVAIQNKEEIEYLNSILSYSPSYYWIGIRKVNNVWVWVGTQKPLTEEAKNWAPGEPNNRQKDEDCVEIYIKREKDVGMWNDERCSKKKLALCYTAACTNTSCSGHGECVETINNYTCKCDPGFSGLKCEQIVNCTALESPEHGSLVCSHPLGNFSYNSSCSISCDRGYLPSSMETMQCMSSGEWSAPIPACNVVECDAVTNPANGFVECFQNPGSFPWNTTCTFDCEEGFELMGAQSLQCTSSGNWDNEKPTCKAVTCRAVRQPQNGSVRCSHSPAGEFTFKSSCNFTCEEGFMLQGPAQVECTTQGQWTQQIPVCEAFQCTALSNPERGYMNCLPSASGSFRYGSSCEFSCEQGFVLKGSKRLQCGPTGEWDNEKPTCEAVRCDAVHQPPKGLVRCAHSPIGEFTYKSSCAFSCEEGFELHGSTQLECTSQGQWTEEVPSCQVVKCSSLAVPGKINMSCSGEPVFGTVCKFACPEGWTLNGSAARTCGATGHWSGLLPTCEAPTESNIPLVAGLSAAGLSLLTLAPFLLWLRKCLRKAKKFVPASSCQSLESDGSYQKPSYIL
Assay notes: BSK_3C_Eselectin: BioMAP Diversity Plus: 3C Assay for Eselectin Biomarker Activity (AID 2283015)
Measurement setup: primary human endothelial cells (HUVEC); actives raise or lower the signal
Active and inactive are the calls of the source. How the source made its calls: active means hit-call score of the fitted dose curve at least 0.9, where 1 is the maximum; inactive means score below 0.9.
Outcomes: 1.0 = active, 0.0 = inactive

| Molecule | Class label |
| --- | --- |
| Cc1cc(C)nc(Nc2ccccc2)n1 | 0.0 |
| Cc1c(COC(=O)[C@@H]2[C@H](/C=C(\Cl)C(F)(F)F)C2(C)C)cccc1-c1ccccc1 | 0.0 |
| CNC(=O)N(C)c1nnc(C(C)(C)C)s1 | 0.0 |
| O=c1n(Cl)c(=O)n(Cl)c(=O)n1Cl | 0.0 |
| Clc1cccc(C(Cl)(Cl)Cl)n1 | 0.0 |
| Nc1cnn(-c2ccccc2)c(=O)c1Cl | 0.0 |
| CSC(=O)c1c(C(F)F)nc(C(F)(F)F)c(C(=O)SC)c1CC(C)C | 0.0 |
| Clc1nc(Cl)nc(Nc2ccccc2Cl)n1 | 0.0 |
| CCNP(=S)(OC)O/C(C)=C/C(=O)OC(C)C (stereo unspecified) | 0.0 |
| Nc1c(Cl)c(Cl)nc(C(=O)O)c1Cl | 0.0 |
| COCC(=O)N(c1c(C)cccc1C)C(C)C(=O)OC (stereo unspecified) | 0.0 |
| COP(=S)(OC)Oc1ccc([N+](=O)[O-])c(C)c1 | 0.0 |
| CCNC(=O)NC(=O)C(C#N)=NOC | 0.0 |
| COP(=O)(OC)O/C(C)=C/C(=O)N(C)C | 0.0 |
| CNC(=O)Oc1cccc2ccccc12 | 0.0 |
| O=C(O)c1c(Cl)ccc2cc(Cl)cnc12 | 0.0 |
| COc1cc(Cl)c(OC)cc1Cl | 0.0 |
| CCN(CC)C(=O)C(C)Oc1cccc2ccccc12 (stereo unspecified) | 0.0 |
| COCc1cnc(C2=NC(C)(C(C)C)C(=O)N2)c(C(=O)O)c1 (stereo unspecified) | 0.0 |
| CC1(C)C(C(=O)OC(C#N)c2cccc(Oc3ccccc3)c2)C1(C)C (stereo unspecified) | 0.0 |
| CCN(CC)c1nc(C)cc(OP(=S)(OC)OC)n1 | 0.0 |
| Nc1c(Cl)c(F)nc(OCC(=O)O)c1Cl | 0.0 |
| CCOP(=O)(OCC)Oc1nc(Cl)c(Cl)cc1Cl | 0.0 |
| CS(=O)(=O)c1ccc(C(=O)C2C(=O)CCCC2=O)c([N+](=O)[O-])c1 | 0.0 |
| CN=C=S | 1.0 |
| C=CCOC(=O)C(C)(C)OC(=O)c1cc(-n2c(=O)cc(C(F)(F)F)n(C)c2=O)ccc1Cl | 0.0 |

====

Test target: Peroxisome proliferator-activated receptor gamma (Homo sapiens)
Assay notes: ATG_PPARg_TRANS: Attagene TRANS-FACTORIAL HepG2 Assay for human Peroxisome Proliferator-activated Receptor-gamma (PPARg) (AID 2283007)
Results filed as inconclusive are left out. Activity calls are given as the source filed them. Rule for the calls: active = hit-call score of the fitted dose curve at least 0.9, where 1 is the maximum; inconclusive = response in the unintended direction; inactive = score below 0.9.
Outcome codes: t for active, f for inactive

| Compound | Class label |
| --- | --- |
| CC(C)NC(=O)N1CC(=O)N(c2cc(Cl)cc(Cl)c2)C1=O | t |
| CCOc1nc(C(Cl)(Cl)Cl)ns1 | f |
| COP(=S)(OC)SCn1nnc2ccccc2c1=O | f |
| COC(=O)N(C(=O)N1CO[C@@]2(C(=O)OC)Cc3cc(Cl)ccc3C2=N1)c1ccc(OC(F)(F)F)cc1 | f |
| CCOC(=O)C(C)OC(=O)c1cc(Oc2ccc(C(F)(F)F)cc2Cl)ccc1[N+](=O)[O-] (configuration not stated) | t |
| Clc1nc(Cl)nc(Nc2ccccc2Cl)n1 | t |
| N#Cc1c(Cl)cccc1Cl | f |
| O=P(O)(O)CCCl | f |
| CCCCOCN(C(=O)CCl)c1c(CC)cccc1CC | t |
| CCOc1nc(F)cc2nc(S(=O)(=O)Nc3c(Cl)cccc3Cl)nn12 | t |
| COP(=O)(OC)O/C(C)=C/C(=O)N(C)C | f |
| O=C(O)c1c(Cl)ccc2cc(Cl)cnc12 | f |
